All values here come from patent US20100004234A1.

subject.of.test: TrkB (Homo sapiens, UniProt Q16620)
Sequence (Q16620 32-822): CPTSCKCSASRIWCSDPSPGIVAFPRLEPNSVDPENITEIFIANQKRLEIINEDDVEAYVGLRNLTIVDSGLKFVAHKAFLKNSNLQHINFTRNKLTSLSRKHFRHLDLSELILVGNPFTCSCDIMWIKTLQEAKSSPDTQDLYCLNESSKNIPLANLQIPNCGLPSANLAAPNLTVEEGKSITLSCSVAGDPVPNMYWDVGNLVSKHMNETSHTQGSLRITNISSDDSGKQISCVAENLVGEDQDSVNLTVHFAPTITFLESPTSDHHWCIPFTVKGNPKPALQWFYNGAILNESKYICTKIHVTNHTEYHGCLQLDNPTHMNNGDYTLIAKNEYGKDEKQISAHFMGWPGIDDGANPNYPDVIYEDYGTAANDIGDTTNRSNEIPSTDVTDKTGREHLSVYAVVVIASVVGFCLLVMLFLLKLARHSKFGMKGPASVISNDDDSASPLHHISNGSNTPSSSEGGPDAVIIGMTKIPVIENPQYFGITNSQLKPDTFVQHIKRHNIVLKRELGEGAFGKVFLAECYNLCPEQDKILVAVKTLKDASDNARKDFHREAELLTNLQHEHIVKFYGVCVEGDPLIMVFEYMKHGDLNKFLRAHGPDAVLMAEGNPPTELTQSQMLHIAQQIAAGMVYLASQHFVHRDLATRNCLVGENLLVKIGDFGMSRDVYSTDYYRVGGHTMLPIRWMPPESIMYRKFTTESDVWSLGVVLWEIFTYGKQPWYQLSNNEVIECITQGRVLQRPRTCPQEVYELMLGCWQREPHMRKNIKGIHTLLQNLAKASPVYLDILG
protocol.description: Time-dependent kinase inhibition kinetics (progress curve)
test.settings: TRKB; reversible inhibition competitive with ATP
value.type: Ki (nM)
Respond numerically; units are nM and should not be typed.

Exam item: Write down the reported Ki (system: TrkB (Homo sapiens, UniProt Q16620)) of COc1cc(O)c2c(c1)[C@H]1O[C@@H]1C[C@H](O)[C@H](O)C(=O)/C=C\C[C@H](C)OC2=O [Hypothemycin, hypothemycin]
Marked response: 370
